system: rice; experiment: Test C flooded paddy test; format: in vivo, Oryza sativa; conditions: 250 g ai/ha, scale of 0 to 100, 0 is no effect, 100 is complete control
Lab note: compare Rice plant response rating against 20. Equal or greater, write TRUE. Smaller, write FALSE.

# bool: Rice plant response rating of "C=CCNC(=O)c1cccc(NC(=O)c2sc(C(C)(C)C)nc2CC)c1" >= 20
TRUE

# bool: Rice plant response rating of "CCc1nn(C(C)(C)C)cc1C(=O)Nc1cc(C(=O)N(CC)CC)ccc1F" >= 20
TRUE

# bool: Rice plant response rating of "CCn1nc(C(C)(C)C)cc1C(=O)Nc1cccc(C(=O)N2CCCC2)n1" >= 20
TRUE

# bool: Rice plant response rating of "CCOC(=O)c1cncc(NC(=O)c2cc(C(C)(C)C)nn2CC)c1" >= 20
TRUE

# bool: Rice plant response rating of "Cc1nn(C(C)C)nc1C(=O)Nc1cccc(C(=O)N(C)C)c1" >= 20
TRUE

# bool: Rice plant response rating of "CCc1nn(C(C)(C)C)cc1C(=O)Nc1cc(C(=O)N(C)C)ccn1" >= 20
TRUE

# bool: Rice plant response rating of "CCn1nc(C(C)(C)C)cc1C(=O)Nc1cccc(SC)c1" >= 20
FALSE

# bool: Rice plant response rating of CCC1=NN(C(C)(C)C)CC1C(=O)Nc1cc(C(=O)N(C)C)ccc1F (racemic) >= 20
TRUE

# bool: Rice plant response rating of "CCCN1CCc2c(NC(=O)c3cc(C(C)(C)C)nn3CC)cccc2C1=O" >= 20
TRUE

# bool: Rice plant response rating of "CCn1nc(C(C)(C)C)cc1C(=O)Nc1cccc2c1CCN(C1CC1)C2=O" >= 20
FALSE

====

tested on: velvetleaf; assay: Test C pre-/postemergence herbicide test; type: in vivo, Abutilon theophrasti; settings: 62 g ai/ha; preemergence; scale 0 to 100
Please go through the items and note down their Plant response rating, Velvetleaf.
Response field accepts a number only; no unit should be typed.

Record request: Plant response rating, Velvetleaf value, item "CCc1nn(C(C)(C)C)nc1C(=O)Nc1cccc(C(=O)N(C)CC)c1"
100

Record request: Plant response rating, Velvetleaf value, item "CCOC(=O)c1cccc(NC(=O)c2nn(C(C)(C)CC)nc2CC)c1"
0

Record request: Plant response rating, Velvetleaf value, item "CCNC(=O)c1cccc(NC(=O)c2sc(C(C)(C)C)nc2C)c1"
5

Record request: Plant response rating, Velvetleaf value, item "CCc1nn(C(C)(C)C)nc1C(=O)Nc1cccc(C(=S)N(C)C)c1"
95

====

system: lambsquarters; experiment: Test C pre-/postemergence herbicide test; type: in vivo, Chenopodium album; conditions: Preemergence, 500 g ai/ha; scale 0 to 100, 0 no effect, 100 complete control
Please go through the items and note down their Lambsquarters plant response rating.
Response field accepts a number only; no unit should be typed.

Record request: Lambsquarters plant response rating value, item "CCN(C)C(=O)c1cccc(NC(=O)c2cc(C(C)(C)C)nn2CC)c1"
95

Record request: Lambsquarters plant response rating value, item "CCn1nc(C(C)(C)C)cc1C(=O)Nc1cccc(C(N)=O)n1"
100

Record request: Lambsquarters plant response rating value, item "CCNC(=O)c1cccc(NC(=O)c2sc(C(C)(C)C)nc2C)c1"
100

Record request: Lambsquarters plant response rating value, item "C=CCNC(=O)c1cccc(NC(=O)c2cc(C(C)(C)C)nn2CC)c1"
100

Ref: patent US20060069132A1
